The measurements presented in this section are drawn from patent US20220185876A1.

Recorded EC50, one value per entry.
# assay.target: T1, human FGF23 (human, UniProt Q9GZV9 25-251)
# T1 construct: also called recombinant human FGF-23; Fibroblast Growth Factor 23
# T1 sequence: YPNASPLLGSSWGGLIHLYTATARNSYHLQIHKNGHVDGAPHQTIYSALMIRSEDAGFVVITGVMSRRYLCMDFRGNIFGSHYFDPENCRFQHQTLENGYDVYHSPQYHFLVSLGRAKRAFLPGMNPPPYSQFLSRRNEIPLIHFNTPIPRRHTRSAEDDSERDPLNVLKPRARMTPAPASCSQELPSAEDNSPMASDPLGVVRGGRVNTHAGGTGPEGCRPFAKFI
# protocol.summary: ELISA, binding to human FGF23 (A450 against log mAb concentration)
Please give the number followed by its unit.

Examples with their reported EC50 follow.
[[record]]
binder = "ExC17 (antibody, V domains shown, Monoclonal anti-FGF23 antibody) VH: EVQLVQSGAEVRKPGASVKVSCKASGYTFTNHYMHWVRQAPGQGLEWMGIINPISGSTSNAQKLQGRVTFTRDTSANTAYMELSGLIPEDTAIYYCARDIVDAFDFWGQGTLVTVSS VL: DIQLTQSPSSLSASVGDRVTITCRASQGISSALVWYQQKPGQAPRLLIYDASSLQSGIPARFSGSGSGTDFTLTISSLEPEDFAVYYCQQFNDLFTFGQGTKLEIK"
readout_label = "EC50"
data_value = "0.0181 µg/mL"

[[record]]
binder = "ExA11 (antibody, V domains shown, Monoclonal anti-FGF23 antibody) VH: QVQLVQSGAELKKPGASVKVSCKASGYTFTNHYMHWVRQAPGQGLEWMGIINPISGSTTYAQKFQGRVTMTRDTSSSTAYMDLSRLTSDDTAVYYCARDIVDAFDFWGQGTTVTVSS VL: AIQLTQSPSSLSASVGDRVTITCRASQGISSALVWYQQKPGQAPRLLIYDASSLESGIPARFSGSGSGTDFTLTISSLEPEDFAVYYCQQFNDYFTFGQGTKLEIK"
readout_label = "EC50"
data_value = "0.0267 µg/mL"


With those in mind, consider the next binder.
Please look up its EC50: ExA28 (antibody, V domains shown, Monoclonal anti-FGF23 antibody) VH: EVQLVQSGAEVRKPGASVKVSCKASGYTFTNHYMHWVRQAPGQGLEWMGIINPISGSTSNAQKLQGRVTFTRDTSANTAYMELSGLIPEDTAIYYCARDIVDAFDFWGQGTLVTVSS VL: AIQMTQSPSSLSASVGDRVTITCRASQGISSALVWYQQKPGKAPKLLIYDASSLESGVPSRFSGSGSGTDFTFTISSLQPEDIATYYCQQFNDYFTFGPGTKLEIK 0.0248 µg/mL
